molecular target: Claudin 18.2 (CLDN18.2), expressed on CHOS-CLDN 18.2 / HEK293-CLDN 18.2 / HCC827-CLDN 18.2 cells (human, UniProt P56856 1-261); assay: cell ELISA
measurement.kind: EC50 (µg/mL)
Give a bare numeral; the unit µg/mL is implied.

Would you please look over these solved cases?
>  <binder>
QP14371434 (antibody, V domains shown) VH: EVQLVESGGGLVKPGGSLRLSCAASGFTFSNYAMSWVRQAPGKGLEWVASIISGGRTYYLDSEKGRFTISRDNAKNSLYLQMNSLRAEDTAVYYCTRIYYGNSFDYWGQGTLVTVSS VL: DIVMTQSPDSLAVSLGERATISCKSSQSLLNSGNQKNYLTWYQQKPGQPPKLLIYWASTRESGVPDRFSGSGSGTDFTLTISSLQAEDVAVYYCQNDYSYPFTFGQGTKLEIK

>  <measurement.kind>
EC50

>  <reported.result>
0.284

$$$$
>  <binder>
QP14381435 (antibody, V domains shown) VH: EVQLVESGGGLVKPGGSLRLSCAASGFTFSNYAMSWVRQAPGKRLEWVASIISGGRTYYLDSEKGRFTISRDNAKNSLYLQMNSLRAEDTAVYYCTRIYYGNSFDYWGQGTLVTVSS VL: DIVMTQSPDSLAVSLGERATISCKSSQSLLNSGNQKNYLTWYQQKPGQPPKLLIYWASTRESGVPDRFTGSGSGTDFTLTISSLQAEDVAVYYCQNDYSYPFTFGQGTKLEIK

>  <measurement.kind>
EC50

>  <reported.result>
0.196

$$$$

Consider the additional binder presented here.
Incoming: State the recorded EC50 for this entry: QP14381433 (antibody, V domains shown) VH: EVQLVESGGGLVKPGGSLRLSCAASGFTFSNYAMSWVRQAPGKRLEWVASIISGGRTYYLDSEKGRFTISRDNAKNSLYLQMNSLRAEDTAVYYCTRIYYGNSFDYWGQGTLVTVSS VL: DIVMTQSPDSLAVSLGERATINCKSSQSLLNSGNQKNYLTWYQQKPGQPPKLLIYWASTRESGVPDRFSGSGSGTDFTLTISSLQAEDVAVYYCQNDYSYPFTFGQGTKLEIK
Outgoing: 0.125

The measured values listed here are drawn from patent US20230183352A1.
